assay: YB-1 transcript reduction by qRT-PCR – cell-based, fluorescence, primary screen (AID 434959); details: U2OS, qRT-PCR YB-1 vs CDIP delta delta Cp, 16 h; active compounds read high; zero = DMSO, each unit about twofold
In all, about 30,000 compounds went through this assay and about 110 (0.37%) were called active. The sample as a whole holds a higher share of actives than the screen did.
Quick rule: delta Cp (YB-1 minus CDIP) of at least 0.009 means met, below that means not met.

C[C@@H]1CN([C@@H](C)CO)C(=O)c2cc(NC(=O)Cc3ccccc3)ccc2O[C@@H]1CN(C)S(=O)(=O)c1ccccc1 met
C[C@H]1CN([C@@H](C)CO)C(=O)Cc2cc(NC(=O)Cc3ccccc3)ccc2O[C@H]1CN(C)S(=O)(=O)c1ccc(Cl)cc1 not met
C[C@H](CO)N1C[C@H](C)[C@H](CN(C)S(=O)(=O)c2ccc(C#N)cc2)Oc2ncc(-c3cccc(F)c3)cc2C1=O met
COc1ccc(S(=O)(=O)N(C)C[C@@H]2Oc3ccc(NC(=O)CCC(F)(F)F)cc3C(=O)N([C@@H](C)CO)C[C@@H]2C)cc1 not met
Cc1ccc(/C=N/NC(=O)CCCCCCC(=O)O)o1 not met
COc1ccc2nc3c(nc2c1)C(=O)c1ccccc1C3=O met
Cc1ccc(S(=O)(=O)N(C)C[C@@H]2Oc3ccc(NC(=O)NC4CCCCC4)cc3C(=O)N([C@@H](C)CO)C[C@H]2C)cc1 met
CC(C)NC(=O)Nc1ccc2c(c1)CC(=O)N([C@H](C)CO)C[C@@H](C)[C@H](CN(C)S(=O)(=O)c1ccccc1)O2 met
O=C(N/N=C/c1ccc(Oc2ccccc2)cc1)c1ccccn1 not met
Cc1noc(C)c1S(=O)(=O)Nc1ccc2c(c1)C(=O)N([C@@H](C)CO)C[C@H](C)[C@H](CN(C)Cc1ccc(C(=O)Nc3ccccc3N)cc1)O2 not met

IN: Can CC(C)(C)c1ccc(-c2[nH]nc(NC(=O)c3ccccc3Cl)c2Br)cc1 be said to have delta Cp (YB-1 minus CDIP) at or above 0.009?
OUT: met

IN: Say whether C[C@H]1CN([C@@H](C)CO)C(=O)c2cccc(NS(=O)(=O)c3ccc(Cl)cc3)c2O[C@H]1CN(C)Cc1ccc2c(c1)OCO2 shows delta Cp (YB-1 minus CDIP) of 0.009 or more.
OUT: met

IN: State whether the measured delta Cp (YB-1 minus CDIP) reaches 0.009, counting equality as reaching it, for O=C(NO)c1ccc(C(=O)N/N=C/c2ccc(Br)cc2)cc1
OUT: not met

IN: Record Oc1cc2c(cc1O)CN(C(=S)NCCc1ccc(Cl)cc1)CCC2 ; criterion: delta Cp (YB-1 minus CDIP) no lower than 0.009. Met?
OUT: met

---

Entries annotated with measured delta Cp (YB-1 minus CDIP)
experiment: YB-1 transcript reduction by qRT-PCR – cell-based, fluorescence, primary screen (AID 434959); conditions: U2OS, qRT-PCR YB-1 vs CDIP delta delta Cp, 16 h; active compounds read high; zero = DMSO, each unit about twofold
About 110 (0.37%) of roughly 30,000 compounds were called active. The sample holds actives, similar compounds and a random draw of the others, so the mix is not that of the screen.
# output: bare number, no unit

Molecule	delta Cp (YB-1 minus CDIP)
COc1ccc(C#Cc2ccc3c(c2)[C@]2(C(=O)N3)[C@H](c3ccccc3OCCO)N3[C@H](c4ccccc4)[C@H](c4ccccc4)OC(=O)[C@H]3[C@@H]2C(=O)N2CCCCCCC2)cc1	0.00142

IN: Look up delta Cp (YB-1 minus CDIP) for this molecule: CC1(C)CC[C@]2(C(=O)O)CC[C@]3(C)C(=CCC4[C@@]5(C)CC[C@H](OC6O[C@H](CO)[C@@H](O)[C@H](O[C@@H]7O[C@H](CO)[C@@H](O)[C@H](O)[C@H]7O)[C@H]6O)C(C)(C)C5CC[C@]43C)[C@@H]2C1 (stereo partly specified)
OUT: -0.209

IN: Name the reported delta Cp (YB-1 minus CDIP) value associated with the molecule C[C@@H]1CN([C@H](C)CO)C(=O)CCCn2cc(nn2)CO[C@@H]1CN(C)Cc1ccccc1C(=O)O
OUT: -0.246

IN: Recorded delta Cp (YB-1 minus CDIP) of Cc1ncc(CO)c(/C=N/NC(=O)c2ccc(C(=O)NO)cc2)c1O , please.
OUT: 0.181

IN: Consider the molecule shown here: CCC/C=C/C(=O)OC1C(O)C23C(O)OC4(CCC5C6(C)CCC(OC7OC(C(=O)O)C(O)C(OC8OC(CO)C(O)C(O)C8OC8OC(C)C(O)C(O)C8OC8OCC(O)C(O)C8O)C7OC7OC(CO)C(O)C(O)C7O)C(C)(C)C6CCC5(C)C4(C)CC2OC(C)=O)C3CC1(C)C (stereo unspecified) What is its recorded delta Cp (YB-1 minus CDIP)?
OUT: 3.51

IN: Consider the molecule shown here: C[C@H]1CN([C@@H](C)CO)C(=O)Cc2cc(NS(C)(=O)=O)ccc2O[C@@H]1CN(C)S(=O)(=O)c1ccc(Cl)cc1 What is its recorded delta Cp (YB-1 minus CDIP)?
OUT: 0.259

---

experiment: YB-1 transcript reduction by qRT-PCR – cell-based, fluorescence, primary screen (AID 434959); settings: U2OS, qRT-PCR YB-1 vs CDIP delta delta Cp, 16 h; zero = DMSO, each unit about twofold
In all, about 30,000 compounds went through this assay and about 110 (0.37%) were called active.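 The calls were made as follows: active = delta delta Cp rounded down to an integer at or above 3, about 3 SD of DMSO wells; inactive = the rest.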 What follows is part of a selection rich in actives, with near analogues and random picks from the rest.
Please answer using one outcome listed in t for active, f for inactive

Look over these answered cases.
Compound	Label Class
Cc1noc(C)c1NC(=O)N(C)C[C@@H]1Oc2ccc(NC(=O)Nc3ccc4c(c3)OCO4)cc2C(=O)N([C@H](C)CO)C[C@H]1C	f
Cc1noc(C)c1S(=O)(=O)Nc1ccc2c(c1)CC(=O)N([C@@H](C)CO)C[C@H](C)[C@H](CN(C)C(=O)Nc1cccc3ccccc13)O2	f
C[C@H](CO)N1C[C@H](C)[C@H](CN(C)S(C)(=O)=O)Oc2ncc(C#CCN(C)C)cc2C1=O	f
Cc1ccoc1CC[N+](C)(C)C	f
COc1ccc(S(=O)(=O)N(C)C[C@H]2Oc3ccc(NC(=O)Nc4c(C)noc4C)cc3CC(=O)N([C@@H](C)CO)C[C@H]2C)cc1	f

IN: Hi, sorry to bother you, what did the test record for CC(C)(C)OC(=O)Nc1cccc(/C=N/NC(=O)CCCCCC(=O)Nc2ccccc2O)c1 ?
OUT: f

IN: Which outcome did this test record for the compound C[C@@H]1CN([C@@H](C)CO)C(=O)c2cccc(NC(=O)CCCCCC(=O)Nc3ccccc3N)c2O[C@@H]1CN(C)CC1CCCCC1 ?
OUT: f

IN: Assay outcome for C=CC(C)(O)CCC1(C)C2=C(C(OC(C)=O)C(OC(C)=O)C1C)C(C)(C)CCC2 (stereo not given) : what was it?
OUT: f

IN: Could you please tell me the result logged for Cc1ccc(C(=O)c2coc3ccc(O)c(CN(C)C)c23)cc1 in this assay?
OUT: f

---

assay: YB-1 transcript reduction by qRT-PCR – cell-based, fluorescence, primary screen (AID 434959); conditions: U2OS, qRT-PCR YB-1 vs CDIP delta delta Cp, 16 h; active compounds read high; zero = DMSO, each unit about twofold
In all, about 30,000 compounds went through this assay and about 110 (0.37%) were called active. Only a selection was taken, and actives are over-represented in it overall.
Readout Label: delta Cp (YB-1 minus CDIP)

COc1ccc(NC(=O)Nc2ccc3c(c2)CC(=O)N([C@@H](C)CO)C[C@@H](C)[C@@H](CN(C)Cc2ccc(Cl)c(Cl)c2)O3)cc1 0.191 (inactive)
Cc1noc(C)c1S(=O)(=O)Nc1ccc2c(c1)CC(=O)N([C@H](C)CO)C[C@@H](C)[C@@H](CN(C)Cc1ccncc1)O2 -0.237 (inactive)

IN: So what's the measured delta Cp (YB-1 minus CDIP) for this one? C[C@@H]1CN([C@@H](C)CO)C(=O)c2cc(NC(=O)c3ccncc3)ccc2O[C@H]1CN(C)S(=O)(=O)c1ccc(Cl)cc1
OUT: -0.0147 (inactive)

IN: Data request, read-out delta Cp (YB-1 minus CDIP), for COc1ccc(NC(=O)N(C)C[C@H]2Oc3ccc(NC(=O)Nc4ccc5c(c4)OCO5)cc3C(=O)N([C@H](C)CO)C[C@H]2C)cc1
OUT: 0.191 (inactive)

IN: Report delta Cp (YB-1 minus CDIP) for C[C@H]1CN([C@@H](C)CO)C(=O)Cc2cc(NC(=O)CCCN(C)C)ccc2O[C@@H]1CN(C)Cc1ccc(-c2ccccc2)cc1 please.
OUT: -1.08 (inactive)

IN: Return reported delta Cp (YB-1 minus CDIP); argument: COc1ccc(CN(C)C[C@@H]2Oc3c(NC(=O)C4CC4)cccc3C(=O)N([C@@H](C)CO)C[C@H]2C)cc1
OUT: -0.213 (inactive)

IN: So what does the record say about delta Cp (YB-1 minus CDIP) for C[C@]12C=CC(=O)C=C1CC[C@@H]1[C@@H]2C(=O)C[C@@]2(C)[C@H]1CC[C@]2(O)C(=O)CO ?
OUT: 1.09 (inactive)

IN: delta Cp (YB-1 minus CDIP) for C[C@H]1CN([C@@H](C)CO)C(=O)Cc2cc(N(C)C)ccc2O[C@@H]1CN(C)Cc1ccc(-c2ccccc2)cc1 ?
OUT: 0.0659 (inactive)

IN: Give its delta Cp (YB-1 minus CDIP) value. Item: COc1cc(CCC(=O)O)oc(=O)c1
OUT: 0.941 (inactive)

IN: Which delta Cp (YB-1 minus CDIP) reading was recorded for the compound O=C(O)CCC(=O)N(Cc1ccccc1)Cc1cn(-c2ccccc2)nc1-c1cccnc1 ?
OUT: -0.539 (inactive)

IN: Bench note: what delta Cp (YB-1 minus CDIP) did Cc1ccc(S(=O)(=O)Nc2ccc3c(c2)C(=O)N([C@H](C)CO)C[C@H](C)[C@H](CN(C)S(=O)(=O)c2ccc(F)cc2)O3)cc1 show?
OUT: 0.151 (inactive)

IN: Which delta Cp (YB-1 minus CDIP) value is on record for C[C@H](CO)N1C[C@H](C)[C@@H](CN(C)Cc2ccc(C(F)(F)F)cc2)Oc2ccc(NC(=O)CCC(F)(F)F)cc2C1=O ?
OUT: -0.124 (inactive)

IN: Given O=C(O)CCCCCC(=O)N/N=C/c1ccco1 , state its recorded delta Cp (YB-1 minus CDIP).
OUT: 0.15 (inactive)

IN: Entry COc1ccc(NC(=O)N(C)C[C@@H]2Oc3c(NC(=O)c4ccc(-c5nccs5)cc4)cccc3C(=O)N([C@H](C)CO)C[C@@H]2C)cc1 : reported delta Cp (YB-1 minus CDIP) = ?
OUT: -0.282 (inactive)

IN: So what's the measured delta Cp (YB-1 minus CDIP) for this one? C[C@@H]1CN([C@@H](C)CO)C(=O)CCCn2cc(nn2)CO[C@H]1CN(C)Cc1ccc(C(=O)O)cc1
OUT: 0.212 (inactive)

IN: Recorded delta Cp (YB-1 minus CDIP) of COc1ccc(NC(=O)O[C@H](c2ccc(OCCO)cc2)[C@@H](CCO)OC)cc1 , please.
OUT: -1.3 (inactive)

IN: Field request: delta Cp (YB-1 minus CDIP) | item: CC(C)NC(=O)N(C)C[C@H]1Oc2ccc(NC(=O)CCCCCC(=O)Nc3ccccc3N)cc2CC(=O)N([C@@H](C)CO)C[C@H]1C
OUT: 0.0201 (inactive)

IN: Can you share its delta Cp (YB-1 minus CDIP)? I mean this compound: [N-]=[N+]=Nc1ccccc1C[C@@]1(C(=O)NCc2ccccc2)N=C(c2ccc(OCCCO)cc2)O[C@@H]1c1ccccc1
OUT: -0.629 (inactive)

IN: Need delta Cp (YB-1 minus CDIP) of Cc1ccc(S(=O)(=O)N(C)C[C@@H]2OCCCC[C@@H](C)Oc3ccc(NS(=O)(=O)c4ccccc4)cc3C(=O)N([C@H](C)CO)C[C@@H]2C)cc1 , thanks.
OUT: -0.0955 (inactive)

IN: // returns reported delta Cp (YB-1 minus CDIP) for input C=CCN1C(=O)[C@]2(O[C@H](CCn3cc(CCO)nn3)[C@@H]([Si](C)(C)c3ccc(OC)cc3)[C@@H]2C)c2cc(N3CCOC3=O)ccc21
OUT: -0.00312 (inactive)
